Taken from patent US20230263822A1.

- MEASUREMENT_PROTOCOL: Hematology assays in cynomolgus monkeys (Example 45)
- Format: in vivo
- SETTINGS: day 85; escalating dose regimen
PARAMETER: MCHC (g/dL)
Give the value, in units of g/dL, as a plain number.

Lab book: MCHC of ISIS 416858: MOE gapmer, nucleobases 1275 to 1318 of SEQ ID NO: 1 (Table 8) (antisense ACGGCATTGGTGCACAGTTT; MOE gapmer, wing and gap sizes not given here) noted as 31

---
Entry ISIS 416864: MOE gapmer, nucleobases 1275 to 1318 of SEQ ID NO: 1 (Table 8) (antisense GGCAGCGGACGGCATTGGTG; MOE gapmer, wing and gap sizes not given here) ; MCHC = 30

MCHC reading for ISIS 417002: MOE gapmer, nucleobases 1275 to 1318 of SEQ ID NO: 1 (Table 8) (antisense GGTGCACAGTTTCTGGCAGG; MOE gapmer, wing and gap sizes not given here) : 30

So, ISIS 416838: MOE gapmer, nucleobases 1018 to 1042 of SEQ ID NO: 1 (Table 6) (antisense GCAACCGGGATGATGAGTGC; MOE gapmer, wing and gap sizes not given here) ? Its MCHC was 30

// field: MCHC; key: ISIS 416850: MOE gapmer, nucleobases 1275 to 1318 of SEQ ID NO: 1 (Table 8) (antisense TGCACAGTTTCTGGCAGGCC; MOE gapmer, wing and gap sizes not given here) ; value = 30
